- study.system: UniProt:Q07820
- test.name: Fluorescence polarization anisotropy (FPA) competition assay, FITC-Bak or FITC-Bim BH3 peptide
- Format: binding
- condition.info: read-out: Ki for Inhibition of Mcl-1 by FPA assay
Entries annotated with measured Ki
Answer in nM, number only, no unit symbol.

Solved cases below.
Cc1cc(OCCCc2c3n(c4c(-c5c(C)nn(C)c5C)c(Cl)ccc24)[C@H](C)CN(c2cccc4c(C(=O)O)cn(Cc5ccncc5)c24)C3=O)cc(C)c1Cl : 1.2
Cc1cc(OCCCc2c3n(c4c(-c5c(C)ncnc5C)c(Cl)ccc24)[C@H](C)CN(c2cccc4cccc(C(=O)O)c24)C3=O)cc(C)c1Cl : 1.3

Let us move to another entry and its Ki.
Ask: Entry Cc1cc(OCCCc2c3n(c4c(-c5c(C)nn(C)c5C)c(Cl)ccc24)CCCN(Cc2cc(C(=O)O)cc(N4CCN(S(=O)(=O)CCc5ccccc5)CC4)n2)C3=O)cc(C)c1Cl , system UniProt:Q07820: what Ki was measured?
Result: 62

---

- study.system: Mcl-1 (Homo sapiens (Human), UniProt Q07820)
- Sequence (Q07820 172-327): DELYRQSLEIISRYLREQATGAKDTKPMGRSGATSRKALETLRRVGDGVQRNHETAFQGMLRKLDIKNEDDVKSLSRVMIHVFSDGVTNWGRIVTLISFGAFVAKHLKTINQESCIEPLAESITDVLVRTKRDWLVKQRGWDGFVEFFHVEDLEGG
- test.name: Fluorescence polarization anisotropy (FPA) competition assay, FITC-Bak or FITC-Bim BH3 peptide
- Assay type: binding
- condition.info: read-out: Ki for Inhibition of Mcl-1 by FPA assay
readout: log10 Ki (log10 of the value in nM)
Recorded Ki (log10, nM)

Cc1cc(OCCCc2c3n(c4c(-c5c(C)ncnc5C)c(Cl)ccc24)CCCN(c2cccc4cc(C(=O)O)n(Cc5ccccn5)c24)C3=O)cc(C)c1Cl : 0.00
Cc1cccc(Cn2c(C(=O)O)cc3cccc(N4C[C@@H](C)n5c(c(CCCOc6cc(C)c(Cl)c(C)c6)c6ccc(Cl)c(-c7c(C)nn(C)c7C)c65)C4=O)c32)n1 : 0.41
Cc1cc(OCCCc2c3n(c4c(-c5c(C)nc(CNC6CCN(C)CC6)nc5C)c(Cl)ccc24)[C@H](C)CN(c2cn(C)c4ccc(C(=O)O)cc24)C3=O)cc(C)c1Cl : 0.67
Cc1nnc(-c2ccc3c(c2)c(N2C[C@@H](C)n4c(c(CCCOc5cc(C)c(Cl)c(C)c5)c5ccc(Cl)c(-c6c(C)nn(C)c6C)c54)C2=O)cn3C)o1 : 0.41
Cc1cc(OCCCc2c3n(c4c(-c5c(C)nn(C)c5C)c(Cl)ccc24)CCCN(Cc2cc(C(=O)O)cc(N4CCN(C(=O)c5ccco5)CC4)n2)C3=O)cc(C)c1Cl : 1.30
Cc1cc(OCCCc2c3n(c4c(-c5c(C)nn(C)c5C)c(Cl)ccc24)[C@H](C)CN(c2cccc4cc(C(=O)O)n(CC5(C)COC5)c24)C3=O)cc(C)c1Cl : 0.90
Cc1cc(OCCCc2c3n(c4c(-c5c(C)nn(C)c5C)c(Cl)ccc24)[C@H](C)CN(c2cn(C)c4ccc(-c5ncn(CC(C)C)n5)cc24)C3=O)cc(C)c1Cl : 0.54
Cc1cc(OCCCc2c3n(c4c(-c5c(C)nc(CN(C)CCN(C)C)nc5C)c(Cl)ccc24)[C@H](C)CN(c2cn(C)c4ccc(C(=O)O)cc24)C3=O)cc(C)c1Cl : 0.34

Note: attention shifts to another entry.
Ask: # lookup: log10 Ki of Cc1cc(OCCCc2c(C(=O)NC3CCC(C(=O)O)CC3)[nH]c3c(-c4c(C)ncnc4C)c(Cl)ccc23)cc(C)c1Cl (single isomer, unassigned) [Example 747]
Result: 1.20

From: patent US11596639B2
